Each entry below carries its reported AC50.
- ASSAY TARGET: UniProt:P05177
- Sequence (P05177 whole entry): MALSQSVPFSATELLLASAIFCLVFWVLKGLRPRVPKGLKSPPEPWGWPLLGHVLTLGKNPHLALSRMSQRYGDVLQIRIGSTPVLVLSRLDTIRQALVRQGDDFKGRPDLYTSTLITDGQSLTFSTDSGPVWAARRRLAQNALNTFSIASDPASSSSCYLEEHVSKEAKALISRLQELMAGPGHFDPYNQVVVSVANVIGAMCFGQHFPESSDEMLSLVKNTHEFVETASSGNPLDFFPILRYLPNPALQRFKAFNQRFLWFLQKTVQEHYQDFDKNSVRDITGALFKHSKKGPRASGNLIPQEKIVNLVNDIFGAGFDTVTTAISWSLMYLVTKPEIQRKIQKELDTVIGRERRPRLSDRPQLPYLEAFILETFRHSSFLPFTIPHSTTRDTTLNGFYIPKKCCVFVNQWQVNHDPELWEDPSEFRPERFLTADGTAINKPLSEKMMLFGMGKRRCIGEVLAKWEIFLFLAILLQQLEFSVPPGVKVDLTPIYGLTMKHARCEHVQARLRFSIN
METRIC NAME: AC50

- MOLECULE: "CN1CCCC2(CCN(S(=O)(=O)c3ccccc3)CC2)C1"
  ASSAY TARGET: "UniProt:P05177"
  METRIC NAME: "AC50"
  ASSAY VALUE: "20 µM (inconclusive)"
- MOLECULE: "CCOC(=O)N1CCC(NC(=O)CCc2nc(C3=CCN(C)CC3)no2)CC1"
  ASSAY TARGET: "UniProt:P05177"
  METRIC NAME: "AC50"
  ASSAY VALUE: "1 µM (inconclusive)"
- MOLECULE: "O=C(CSCc1ccccc1Cl)NNC(=O)c1ccccc1"
  ASSAY TARGET: "UniProt:P05177"
  METRIC NAME: "AC50"
  ASSAY VALUE: "15.8 µM (inconclusive)"
- MOLECULE: "CC(=O)Nc1cccc(NC(=O)C2CCCN2C(=O)Nc2ccccc2C)c1 (stereo not drawn)"
  ASSAY TARGET: "UniProt:P05177"
  METRIC NAME: "AC50"
  ASSAY VALUE: "25.1 µM (inconclusive)"
- MOLECULE: "CCCc1nc(SCC(=O)NNC(=O)C2CCCCC2)c2ccccc2n1"
  ASSAY TARGET: "UniProt:P05177"
  METRIC NAME: "AC50"
  ASSAY VALUE: "15.8 µM (inconclusive)"
- MOLECULE: "COc1ccc(CC(=N)NOC(=O)Cc2ccccc2)cc1OC"
  ASSAY TARGET: "UniProt:P05177"
  METRIC NAME: "AC50"
  ASSAY VALUE: "14.1 µM (inconclusive)"
- MOLECULE: "O=C(CCC(=O)OCc1ccc(C(=O)Oc2ccccc2)cc1)Nc1cccc2ccccc12"
  ASSAY TARGET: "UniProt:P05177"
  METRIC NAME: "AC50"
  ASSAY VALUE: "8.91 µM (inconclusive)"
- MOLECULE: "C=CCNc1cnn(-c2ccc(C)cc2)c(=O)c1Cl"
  ASSAY TARGET: "UniProt:P05177"
  METRIC NAME: "AC50"
  ASSAY VALUE: "28.2 µM (inconclusive)"
- MOLECULE: "COC(=O)[C@@]1(Cc2ccc(F)cc2)[C@H]2c3cc(C(=O)N4CCCC4)n(Cc4ccccn4)c3C[C@H]2CN1C(=O)c1ccccc1"
  ASSAY TARGET: "UniProt:P05177"
  METRIC NAME: "AC50"
  ASSAY VALUE: "20 µM (inconclusive)"
- MOLECULE: "Cc1nnc(C)n1/N=C/c1ccc(-c2ccccc2)cc1"
  ASSAY TARGET: "UniProt:P05177"
  METRIC NAME: "AC50"
  ASSAY VALUE: "10 µM (inconclusive)"
- MOLECULE: "Cc1ccc(C(=O)O/N=C/c2c(Cl)n(C)c3ccccc23)cc1"
  ASSAY TARGET: "UniProt:P05177"
  METRIC NAME: "AC50"
  ASSAY VALUE: "1.12 µM (inconclusive)"
- MOLECULE: "CC1CC(C)CN(C/C=C/c2ccccc2[N+](=O)[O-])C1 (stereo not drawn)"
  ASSAY TARGET: "UniProt:P05177"
  METRIC NAME: "AC50"
  ASSAY VALUE: "14.1 µM (inconclusive)"
- MOLECULE: "COc1cc2c(C(=O)N3CCN(C)CC3)c(C)n(-c3ccccc3)c2cc1Br"
  ASSAY TARGET: "UniProt:P05177"
  METRIC NAME: "AC50"
  ASSAY VALUE: "25.1 µM (inconclusive)"

----------
- ASSAY TARGET: Luciferin 4-monooxygenase (Photinus pyralis, UniProt P08659)
- Sequence (P08659 whole entry): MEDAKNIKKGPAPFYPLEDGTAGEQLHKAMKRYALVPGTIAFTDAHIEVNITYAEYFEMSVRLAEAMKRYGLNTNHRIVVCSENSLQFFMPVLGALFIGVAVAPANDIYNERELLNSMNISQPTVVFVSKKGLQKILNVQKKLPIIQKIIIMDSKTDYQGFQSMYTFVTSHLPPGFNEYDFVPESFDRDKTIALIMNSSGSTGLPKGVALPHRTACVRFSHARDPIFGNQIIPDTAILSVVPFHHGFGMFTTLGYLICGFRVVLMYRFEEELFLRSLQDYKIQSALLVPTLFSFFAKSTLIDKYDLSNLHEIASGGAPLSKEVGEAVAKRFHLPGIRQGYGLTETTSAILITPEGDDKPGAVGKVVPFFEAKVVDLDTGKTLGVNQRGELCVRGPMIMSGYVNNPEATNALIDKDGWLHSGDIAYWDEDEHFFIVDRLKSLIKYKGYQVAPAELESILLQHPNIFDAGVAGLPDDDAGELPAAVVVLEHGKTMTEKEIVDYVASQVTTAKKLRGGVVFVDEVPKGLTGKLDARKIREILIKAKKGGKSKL
- METHOD NOTES: inhibition of purified Photinus pyralis luciferase – biochemical, luminescence, dose response (AID 1891)
Active and inactive are the calls of the source.

- COMPOUND: "COC(=O)c1cccc([N+](=O)[O-])c1CN1CCCC(C(N)=O)C1 (stereo not given)"
  ASSAY TARGET: "Luciferin 4-monooxygenase (Photinus pyralis, UniProt P08659)"
  EC50: "> 112 µM (not active)"
- COMPOUND: "O=S1(=O)CCN(Cc2csc(-c3cccs3)n2)CC1"
  ASSAY TARGET: "Luciferin 4-monooxygenase (Photinus pyralis, UniProt P08659)"
  EC50: "> 112 µM (not active)"
- COMPOUND: "Cc1nn(C(C)C(=O)N2CCc3ccccc3C2)c(=O)c2cc3occc3n12 (stereo not given)"
  ASSAY TARGET: "Luciferin 4-monooxygenase (Photinus pyralis, UniProt P08659)"
  EC50: "> 112 µM (not active)"
- COMPOUND: "CCS(=O)(=O)c1ccc2oc(Nc3ccccc3Cl)nc2c1"
  ASSAY TARGET: "Luciferin 4-monooxygenase (Photinus pyralis, UniProt P08659)"
  EC50: "1.75 µM (active)"
- COMPOUND: "O=C(Oc1ccc(Cl)cc1)c1ccc(COC(=O)c2cnccn2)cc1"
  ASSAY TARGET: "Luciferin 4-monooxygenase (Photinus pyralis, UniProt P08659)"
  EC50: "> 112 µM (not active)"

----------
- ASSAY TARGET: Heat shock factor protein 1 (Mus musculus, UniProt P38532)
- Sequence (P38532 whole entry): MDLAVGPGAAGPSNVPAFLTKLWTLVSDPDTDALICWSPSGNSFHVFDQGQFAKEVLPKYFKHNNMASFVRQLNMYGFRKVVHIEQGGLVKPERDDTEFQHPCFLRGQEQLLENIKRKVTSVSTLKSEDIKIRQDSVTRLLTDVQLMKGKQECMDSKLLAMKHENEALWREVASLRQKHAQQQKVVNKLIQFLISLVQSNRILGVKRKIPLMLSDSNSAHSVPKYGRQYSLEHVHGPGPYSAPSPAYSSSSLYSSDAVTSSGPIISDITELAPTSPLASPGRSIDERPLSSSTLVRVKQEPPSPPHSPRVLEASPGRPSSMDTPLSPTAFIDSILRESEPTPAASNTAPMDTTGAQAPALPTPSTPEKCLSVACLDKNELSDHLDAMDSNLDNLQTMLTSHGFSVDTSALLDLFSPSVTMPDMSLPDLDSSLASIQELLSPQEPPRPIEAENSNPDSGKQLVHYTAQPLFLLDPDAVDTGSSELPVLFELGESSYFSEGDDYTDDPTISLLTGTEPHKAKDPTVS
- METHOD NOTES: enhancement of HSF1-driven luciferase signal – cell-based, NIH3T3, luminescence, dose retest, confirmation (AID 435004);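 further: stress induced by proteasome inhibitor MG132 added 30 min after compound; luciferase reporter driven by HSF1 response element in NIH3T3 cells; actives raise luminescence as potentiators of the MG132 stress response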
- Assay type: functional
Activity calls are given as the source filed them.
Possible outcomes: TRUE = active, FALSE = inactive

- COMPOUND: "CC(C)CN(C(=O)c1cccs1)C1CCS(=O)(=O)C1 (stereo unspecified)"
  ASSAY TARGET: "Heat shock factor protein 1 (Mus musculus, UniProt P38532)"
  ASSIGNED LABEL: "FALSE"
- COMPOUND: "O=[N+]([O-])c1cc([N+](=O)[O-])c(Oc2c(F)cccc2F)cc1NN1CCCCC1"
  ASSAY TARGET: "Heat shock factor protein 1 (Mus musculus, UniProt P38532)"
  ASSIGNED LABEL: "FALSE"
- COMPOUND: "COCCNC(=O)/C(C#N)=C/c1ccc(OC(=O)c2cccs2)c(OC)c1"
  ASSAY TARGET: "Heat shock factor protein 1 (Mus musculus, UniProt P38532)"
  ASSIGNED LABEL: "FALSE"
- COMPOUND: "C/C(N)=C(/C#N)C(=O)CSc1nnc(-c2ccc3c(c2)OCO3)o1"
  ASSAY TARGET: "Heat shock factor protein 1 (Mus musculus, UniProt P38532)"
  ASSIGNED LABEL: "FALSE"
- COMPOUND: "Cc1ccc(C(c2c(C)nn(-c3ccccc3)c2N)c2c(C)nn(-c3ccccc3)c2N)cc1"
  ASSAY TARGET: "Heat shock factor protein 1 (Mus musculus, UniProt P38532)"
  ASSIGNED LABEL: "FALSE"
- COMPOUND: "CCC(=O)Nc1cccc(C(=O)/C=C/c2ccc(F)cc2)c1"
  ASSAY TARGET: "Heat shock factor protein 1 (Mus musculus, UniProt P38532)"
  ASSIGNED LABEL: "TRUE"

----------
- ASSAY TARGET: RNA-binding protein pos-1 (Caenorhabditis elegans)
- Sequence (G5EF15 whole entry, the tested form may be a part): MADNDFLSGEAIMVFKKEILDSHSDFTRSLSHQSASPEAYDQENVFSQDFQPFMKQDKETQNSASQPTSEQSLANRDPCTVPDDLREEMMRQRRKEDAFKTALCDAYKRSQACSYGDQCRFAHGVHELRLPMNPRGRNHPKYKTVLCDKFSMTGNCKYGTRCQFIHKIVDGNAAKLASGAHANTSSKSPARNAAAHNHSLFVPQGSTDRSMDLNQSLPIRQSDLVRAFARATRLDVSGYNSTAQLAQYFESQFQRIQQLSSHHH
- METHOD NOTES: disruptors of C. elegans POS-1 RNA interaction – biochemical, fluorescence polarization, dose response (AID 1964);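 further: purified POS-1 fused to maltose binding protein made in E. coli; potency of compounds blocking POS-1 binding to fluorescent RNA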
Calls of active or inactive are those of the source.
Measured EC50, listed per entry for reference.
METRIC NAME: EC50

- MOLECULE: "CN1C(=O)C(=Cc2cc3ccccc3nc2O)C(=O)N(C)C1=O"
  ASSAY TARGET: "RNA-binding protein pos-1 (Caenorhabditis elegans)"
  ASSAY VALUE: "> 300 µM (not active)"
- MOLECULE: "Cc1ccc2nc3sc(C(=O)N4CCCc5ccccc54)c(N)c3cc2c1"
  ASSAY TARGET: "RNA-binding protein pos-1 (Caenorhabditis elegans)"
  ASSAY VALUE: "> 300 µM (not active)"
- MOLECULE: "COc1ccc(Nc2nc3ccccc3nc2NS(=O)(=O)c2cccs2)c(OC)c1"
  ASSAY TARGET: "RNA-binding protein pos-1 (Caenorhabditis elegans)"
  ASSAY VALUE: "5.66 µM (active)"
- MOLECULE: "CCC(C)(C)NC(=O)C(c1cccn1C)N(C(=O)Cn1nnc2ccccc21)c1ccc(OC)cc1 (stereo not given)"
  ASSAY TARGET: "RNA-binding protein pos-1 (Caenorhabditis elegans)"
  ASSAY VALUE: "> 300 µM (not active)"
- MOLECULE: "C=CCOc1cccc(C2C(C(=O)c3ccc(C)o3)=C(O)C(=O)N2c2nnc(C)s2)c1 (stereo not given)"
  ASSAY TARGET: "RNA-binding protein pos-1 (Caenorhabditis elegans)"
  ASSAY VALUE: "> 300 µM (not active)"
